From: patent US12667608B2

Tested on: Mtb H37Rv
Test: microbe, parasite or virus in culture
Type: cell-based
Settings: Mycobacterium tuberculosis, 672 h
Observed property: MIC (µg/mL)
// note: answer is a bare numeric in µg/mL

These recorded examples may help you get a feel for the data.
Compound | System name | Observed property | Test result
CC[C@@H](CO)NCCN[C@@H](CC)CO [EMB, ethambutol] | Mtb H37Rv | MIC | 0.5
CC(=O)NC[C@H]1CN(c2ccc(N3CCOCC3)c(F)c2)C(=O)O1 [LZD, linezolid] | Mtb H37Rv | MIC | 0.25
CO[C@H]1/C=C/O[C@@]2(C)Oc3c(C)c(O)c4c(O)c(c(/C=N/N5CCN(C)CC5)c(O)c4c3C2=O)NC(=O)/C(C)=C\C=C\[C@H](C)[C@H](O)[C@@H](C)[C@@H](O)[C@@H](C)[C@H](OC(C)=O)[C@@H]1C [RIF, rifampicin] | Mtb H37Rv | MIC | 0.25
[H]/N=C(/N)N[C@H]1[C@H](O)[C@@H](O)[C@H](O[C@@H]2O[C@@H](C)[C@](O)(C=O)[C@H]2O[C@@H]2O[C@@H](CO)[C@H](O)[C@@H](O)[C@@H]2NC)[C@@H](N/C(N)=N\[H])[C@@H]1O [STR, streptomycin] | Mtb H37Rv | MIC | 1

Input: # return recorded MIC for input CC(C)/N=c1\cc2n(-c3ccc(Cl)cc3)c3ccccc3nc-2cc1Nc1ccc(Cl)cc1 [CLA, clofazimine]
Output: 8

Input: Annotate the compound C[C@H]1COc2c(N3CCN(C)CC3)c(F)cc3c(=O)c(C(=O)O)cn1c23 [LFX, levofloxacin] with its measured MIC.
Output: 0.5

Input: Please report the measured MIC for CCCc1cc(C(N)=S)ccn1 [PRO, prothionamide]
Output: 0.5

====

As shown below, each of these compounds has a reported MIC value.
Tested on: Recombinant drug-resistant BCG Strain
Assay: microbe, parasite or virus in culture
Assay type: cell-based
Settings: Mycobacterium tuberculosis variant bovis BCG, 672 h

Example compounds with recorded MIC:
Compound | MIC
COc1c(N2C[C@@H]3CCCN[C@@H]3C2)c(F)cc2c(=O)c(C(=O)O)cn(C3CC3)c12 [MFX, moxifloxacin] | 4 µg/mL
CC(C)/N=c1\cc2n(-c3ccc(Cl)cc3)c3ccccc3nc-2cc1Nc1ccc(Cl)cc1 [CLA, clofazimine] | 0.5 µg/mL
CC(=O)NC[C@H]1CN(c2ccc(N3CCOCC3)c(F)c2)C(=O)O1 [LZD, linezolid] | 0.03 µg/mL
O=[N+]([O-])c1cn2c(n1)OC[C@@H](OCc1ccc(OC(F)(F)F)cc1)C2 [PA-824, Pretomanid] | 0.25 µg/mL
CO[C@H]1/C=C/O[C@@]2(C)Oc3c(C)c(O)c4c(O)c(c(/C=N/N5CCN(C)CC5)c(O)c4c3C2=O)NC(=O)/C(C)=C\C=C\[C@H](C)[C@H](O)[C@@H](C)[C@@H](O)[C@@H](C)[C@H](OC(C)=O)[C@@H]1C [RIF, rifampicin] | 0.5 µg/mL

Input: For Nc1ccc(C(=O)O)c(O)c1 [PAS, para-aminosalicylic acid] , write its MIC.
Output: 0.25 µg/mL

====

Test system: Recombinant drug-resistant BCG Strain
Experiment: microbe, parasite or virus in culture
Assay type: cell-based
Details: Mycobacterium tuberculosis variant bovis BCG, 672 h
In this section we review reported log10 MIC values for a set of compounds.
// do not treat as linear: log10 of MIC, unit mg/L

Compound | log10 MIC
COc1nc2ccc(Br)cc2cc1[C@@H](c1ccccc1)[C@@](O)(CCN(C)C)c1cccc2ccccc12 | -1.52

Input: Answer with the recorded log10 MIC for the compound listed here: C[C@H]1COc2c(N3CCN(C)CC3)c(F)cc3c(=O)c(C(=O)O)cn1c23
Output: 0.60

Input: Write down log10 MIC measured for item CCCc1cc(C(N)=S)ccn1 [PRO, prothionamide]
Output: 1.81

Input: Name the recorded log10 MIC of the item [H]/N=C(/N)N[C@H]1[C@H](O)[C@@H](O)[C@H](O[C@@H]2O[C@@H](C)[C@](O)(C=O)[C@H]2O[C@@H]2O[C@@H](CO)[C@H](O)[C@@H](O)[C@@H]2NC)[C@@H](N/C(N)=N\[H])[C@@H]1O in your answer.
Output: 1.81

Input: # return recorded log10 MIC for input NNC(=O)c1ccncc1
Output: -1.22

Input: Read off the recorded log10 MIC for NCC[C@H](O)C(=O)N[C@@H]1C[C@H](N)[C@@H](O[C@H]2O[C@H](CN)[C@@H](O)[C@H](O)[C@H]2O)[C@H](O)[C@H]1O[C@H]1O[C@H](CO)[C@@H](O)[C@H](N)[C@H]1O
Output: 0.70

Input: Give the reported log10 MIC for this compound. CC[C@@H](CO)NCCN[C@@H](CC)CO
Output: 0.70

====

Tested on: Mtb H37Rv
Assay: microbe, parasite or virus in culture
Type: cell-based
Conditions: Mycobacterium tuberculosis, 672 h
Listed here: items and their measured MIC.

Known MIC results, listed for orientation:
Smi | MIC
NCC[C@H](O)C(=O)N[C@@H]1C[C@H](N)[C@@H](O[C@H]2O[C@H](CN)[C@@H](O)[C@H](O)[C@H]2O)[C@H](O)[C@H]1O[C@H]1O[C@H](CO)[C@@H](O)[C@H](N)[C@H]1O | 0.5 to 1 µg/mL
Nc1ccc(C(=O)O)c(O)c1 | 0.3 to 1 µg/mL
COc1nc2ccc(Br)cc2cc1[C@@H](c1ccccc1)[C@@](O)(CCN(C)C)c1cccc2ccccc12 | 0.03 to 0.12 µg/mL
COc1c(N2C[C@@H]3CCCN[C@@H]3C2)c(F)cc2c(=O)c(C(=O)O)cn(C3CC3)c12 | 0.25 to 0.5 µg/mL
O=[N+]([O-])c1cn2c(n1)OC[C@@H](OCc1ccc(OC(F)(F)F)cc1)C2 | 0.06 to 0.125 µg/mL

Consider the record given below.
Input: Consider the compound NNC(=O)c1ccncc1 tested on Mtb H37Rv; state its MIC.
Output: 0.03 to 0.06 µg/mL
